- PROTOCOL_NOTES: Dark toxicity (MTT assay, without illumination)
- Type: cell-based
- STUDY_CONDITIONS: human; MCF-7 cells, tested in dark; read-out: TC50 (toxicity concentration 50%), dark toxicity
ATTRIBUTE_MEASURED: CC50 (µM)
Give bare numbers, in µM.

{"SMILES_REPR": "C[n+]1ccccc1/C=C/c1ccc(N(c2ccccc2)c2ccc(/C=C/c3cccc[n+]3C)cc2)cc1", "CC50 [µM]": 20}

Qu. Find the recorded CC50 belonging to Cn1c(/C=C/c2ccc(N(c3ccccc3)c3ccc(/C=C/c4n(C)c5ccccc5[n+]4C)cc3)cc2)[n+](C)c2ccccc21 and report it.
Ans. 10

Data origin, for the record: patent EP2711366A1
